system: MS2 coat protein; experiment: apparent KD of MS2 coat protein; designed switch direction (-1 OFF switch, 1 ON switch): -1; higher = weaker reporter binding; settings: Eterna round: R95; input ligand: none
quantity measured: apparent KD of MS2 coat protein (nM)
The response must be a number in nM with no trailing unit.

residues	test result
GCAGGAUAAGUUAGGAUAUACCUAUGGAUACAUAGGUAGAAGGGACAUGAGGAUCACCCAUGUGACUCACCUGC [Fiskers BMX 4 - 63] (puzzle: Brourd's mod of Exclusion 4)	22.4
CUAUUACGAGGAUAUGAUUUAAAUAACAUGAGGAUCACCCAUGUUUUUACGUUAUUUUAUUUAGAAGGCGUAUUGU [JR_E5_Sub028] (puzzle: Exclusion 5)	61.5
AGUAGAUCUACGCUUGCGUGGAUCUGCUAGGCAGGUGUAACAUGAGGAUCACCCAUGUCCUCAUUUGUUCGUCUUAU [JL turnoff v2 99.18] (puzzle: Sensor v3, turn-off variant 2)	28.3
GAAAAGGUAGGAUAUACGAAAAAAAAAGGUAGAAAAAAAACACAUGAGGAUCACCCAUGUAGAAGGACCAAAAG [salish99_ex2_r3_070] (puzzle: Exclusion 2)	30.6

Alright, here's another sequence for you.
In plain terms, GGUUGGCGAGGAUAUACAUGAGGAUCACCCAUGUGAGAGAUACUAGUGAGGUCGAUUGGUAGAAGGCGCUGACG [JL-ex3-2.02 salish99 mod] (puzzle: Exclusion 3) has a documented apparent KD of MS2 coat protein of 135

* * *

# key: entry, value: apparent KD of MS2 coat protein
test system: MS2 coat protein; test: apparent KD of MS2 coat protein; designed switch direction (-1 OFF switch, 1 ON switch): -1; higher = weaker reporter binding; details: input ligand: none

Worked set:
residues	apparent KD of MS2 coat protein
UUGAAGUCAUCAGGAUAUAGUUUUAAUGUCAUGCUUAAGUUCUUACAUGAGGAUCACCCAUGUCGCUAGAAGGGAUUAUAGAUU [JR_ExcNG2_Sub078] (Eterna round: R96, puzzle: Exclusion NG 2)	67.7 nM
UUAAAUAAUGUAGGAUAUGCAAGGCGAACCUAAGCAGAAGGACAUGAGGAUCACCCAUGUAAUGCGGUCUGCGUACAGAUCGCA [JL ENG1 1.01] (Eterna round: R96, puzzle: Exclusion NG 1)	24.2 nM
UAAGUUUACCGAGGAUAUGGUCAAUAAUUAUGACCAGAAGGCGGACUCAACAUGAGGAUCACCCAUGUAUAAAGGGUAAUUGGU [JR_ExcNG1_Sub047] (Eterna round: R96, puzzle: Exclusion NG 1)	90.8 nM
AUUCGAAAGAUCCACAUGGACAUGAGGAUCACCCAUGUGCAAGCCUUUUUCUCGUCACUAUCGUCAAAAGACGAUAG [Omei Mir Offv1 A7] (Eterna round: R97, puzzle: Sensor, turn-off variant 1)	848 nM
UUAUGAGAGCAGGAUAUCUUAUUUUUUUUUUGUGGAGAAGGGCUCACAUGAGGAUCACCCAUGUGGUCCUAGAU [LRO-Excl6-25-mod of 4.86 by jal] (Eterna round: R97, puzzle: Exclusion 6)	32.9 nM
UGAGUCUAAGGAUAUCUGAGGCGCGACAUGAGGAUCACCCAUGUCUCCAAGGAGAGAGCUGGAGAAGGUAGCUGGA [Eternabot (L2) Solution 81] (Eterna round: R97, puzzle: Exclusion 5)	18.6 nM

In plain terms, CCUAGGUUAGGAUAUCUCGAUGUGGCAAAGGGUCCAUAUCGGGAGAAGGAACAUGAGGAUCACCCAUGUGGAGC [Eternabot (Original) Solution 42] (Eterna round: R97, puzzle: Exclusion 4) has a documented apparent KD of MS2 coat protein of 57 nM

In plain terms, CCUCGACAUGAGGAUCACCCAUGUGAGGAUAUCAUAUUCAGACGAAAGGUGUUAGAGUUGAGAAGGCGCAUGUU [Eternabot (L1) Solution 51] (Eterna round: R97, puzzle: Exclusion 1) has a documented apparent KD of MS2 coat protein of 28.3 nM

In plain terms, UCUUACUGAGGAUAUACUUAGAUUUACAUGAGGAUCACCCAUGUUCCUCUAUGUAUAUAUGUAGAAGGCAGAAGAU [Mat - Exclusion 5 - JL Mod - D47] (Eterna round: R97, puzzle: Exclusion 5) has a documented apparent KD of MS2 coat protein of 35.6 nM

* * *

# key: entry, value: apparent KD of MS2 coat protein
test system: MS2 coat protein; assay: apparent KD of MS2 coat protein, switch OFF state (with FMN for OFF switches, without FMN for ON switches); designed switch direction (-1 OFF switch, 1 ON switch): 1; higher = weaker reporter binding; details: FMN input: 0 or 200 uM; Eterna round: R93 (includes R88 designs)
The response must be a number in nM with no trailing unit.

Worked set:
residues	unit info	apparent KD of MS2 coat protein
AGGAGACAUGAGGAUCACCCAUGUGCGAGGUGAAGAGGAUAUAGAAGAAGAAGAAAGAAACUAGAAGGCUUAAAAA [JR_SameState1_Sub1]	nM	125
AAAAAACAUGAGGAUCACCCAUGUGAAAAUAUGGGAGGAUAUACAAAGACGAAAGUCAAAGUAGAAGGCCUAAAAA [Mat - Same State 1 - Eli mod - D86]	nM	132
AAAUAAAUGACUGAGGAUAUAUCGAUGUGUACAUGAGGAUCACCCAUGUGUGAAUAAAAAGGGUGGUAGAAGGUAGUCAACAAAC [Mod 17 of Pariah 4 by Hyphema in Round 1]	nM	66.7
AAAAAAAAGCCCAAGGAUAUCCGGAUGAAGACAUGAGGAUCACCCAUGUGAAAAAAAAAAUAUGAGGAGAAGGUGGGAAAAAAAAA [Esgemaedso]	nM	76.6
AAAAAACAUGAGGAUCACCCAUGUGAGAACACGGGAGGAUAUACGAAGACGAAAGUCGAAGUAGAAGGCCUAAAAA [Garnet 82]	nM	75.6
GAAAAACAUGAGGAUCACCCAUGUGAUAACAUGGGAGGAUAUACGAGGACGAUAGUCAAGGUAGAAGGCCUAAAAG [Garnet 60]	nM	24.6
AGGAAACAUGAGGAUCACCCAUGUAAAAAAAUGGGAGGAUAUCCGCAUUAAUUAAAUGAAGGAGAAGGCCUAAAAA [71%, Same state of confusion2, 5]	nM	63.1
AAUGAACAUGAGGAUCACCCAUGUUUUAAUAGUUGAGGAUAUAUGGGUGAAAAUAGCACAGUAGAAGGCGAGUGUA [SameState1 Malc#16]	nM	133
GGCAAACAUGAGGAUCACCCAUGUCAGUGCUAUCAAGGAUAUGGGAUGACGGAAGGUCGGCCAGAAGGUGAGAAAG [Quededma]	nM	406
UAAAAACAUGAGGAUCACCCAUGUAGAAAUAUGGGAGGAUAUACAAAGACGAAAGUCAAAGUAGAAGGCCUGAAAU [Mat - Same State 1 - Eli mod - 85]	nM	88.7

In plain terms, AGGAGACAUGAGGAUCACCCAUGUGAGAAGAGGCGAGGAUAUCGAAAGAAAGAAGAGAAACGAGAAGGCGCGAGUC [salish99-SS1-030] has a documented apparent KD of MS2 coat protein of 37

In plain terms, UAACAACAUGAGGAUCACCCAUGUCAAACAGAUCGAGGAUAUGGGCAGGGUUUUCCCUAACUAGAAGGCGAAGACA [Leinxeerri] has a documented apparent KD of MS2 coat protein of 181

* * *

system: MS2 coat protein; assay: apparent KD of MS2 coat protein; designed switch direction (-1 OFF switch, 1 ON switch): 1; higher = weaker reporter binding; settings: input ligand: FMN 200 uM
So basically: apparent KD of MS2 coat protein at 100 nM or higher? That is label 1. Lower than 100 nM? That is label 0.

# example entries with known answers
residues	assigned category
AAAUAAAACACAGGAUAUGCAACCAAAACGGCGGCAGAAGGGUGAGACAUGAGGAUCACCCAUGUACACGUCCCACGGACGUGC [Arorraed] (Eterna round: R96, puzzle: Same State NG 1)	label 1
AGGCUCAGAGCAGGAUAUACGUGGUCACAUGAGGAUCACCCAUGUCUCGAGCUUCGGCUCGAGGCGUAGAAGGGCUCUGAGCCA [SSNG2/6-B1] (Eterna round: R96, puzzle: Same State NG 2)	label 1
GCUAGAAUUAAUGCUAACAUGAGGAUCACCCAUGUAUGUUGGCAGGAUAUCGUUUGCAAAGCAAACGAGAAGGGCCAUACUAGC [Mat - Same State NG 3 - JL Mod - D25] (Eterna round: R96, puzzle: Same State NG 3)	label 0
AGCCGAGACUGAGGAUAUAGAAAUCUACAUGAGGAUCACCCAUGUAACAACACGUGGUAGUGAUUCUAGAAGGCGGCUCGGCGC [Omei SS(NG)2 Cv4] (Eterna round: R96, puzzle: Same State NG 2)	label 1
AAAUAAUAGGCAGGAUAUGGGAAAGGAAGUGUACCAGAAGGGCCGCAACUCAAUACAACAUGAGGAUCACCCAUGUUAGUGUCG [PowerStrip SSNG 1.5] (Eterna round: R96, puzzle: Same State NG 1)	label 0
UUGUUUCGUCAUUAACAUGAGGAUCACCCAUGUAAAGGAGCAGAGGAUAUGCAUGUUUGAUUGUAGCAGAAGGCUGAUUGUUGU [JR_SSNG3_Sub034] (Eterna round: R96, puzzle: Same State NG 3)	label 0

Hi team, for UGUACCUUCAUAGGAUAUCAUGCGAAAAUUGCGUGAGAAGGGUGAAUACUGUCUUUCUAAGAGUACAUGAGGAUCACCCAUGUA [SameState NG1 #62] (Eterna round: R96, puzzle: Same State NG 1) , is the recorded apparent KD of MS2 coat protein at or above 100 nM?
label 1

Hi team, for AUUGCUUACGCAGGAUAUGAUGCGAAAAUUGCGUCAGAAGGGUGAAGUGACUCGUUGCAACAAGACAUGAGGAUCACCCAUGUC [SameState NG1 #92] (Eterna round: R96, puzzle: Same State NG 1) , is the recorded apparent KD of MS2 coat protein at or above 100 nM?
label 1

Hi team, for CGUACACAUGAGGAUCACCCAUGUCAGAUUUGGUCAGGAUAUGGGCGGCAUCCGCUAUUGCCAGAAGGGACUGUUG [JR_SS001_Sub703] (Eterna round: R96, puzzle: Same State 1) , is the recorded apparent KD of MS2 coat protein at or above 100 nM?
label 1
